All figures here come from ChEMBL document CHEMBL1201862.

Tested on: IGROV-1
TEST_DETAILS: NCI tumour cell line growth inhibition, 48 h
Active and inactive are the calls of the source. No stated cut-off is given here; in the data, active = GI50 up to about 1.1 µM and inactive = higher.
QUANTITY_KIND: GI50

Examples with answers:
MOLECULE: O=c1c2ccccc2n2n1CC(O)C2 (centres undefined)
OBS_VALUE: > 100 µM (inactive)

MOLECULE: CN1C2CCC1CC(CCNC(c1ccccc1)c1ccccc1)C2 (centres undefined)
OBS_VALUE: 62.7 µM (inactive)

MOLECULE: COc1ccc(C2C(Cl)C(=O)N2NC(=O)c2ccc(NC(C)=O)cc2)cc1OC (centres undefined)
OBS_VALUE: > 100 µM (inactive)

*Q* Would you kindly share the measured GI50 for CCC1N2CCCCC2[C@@H]2c3[nH]c4ccccc4c3CCN12 (some centres undefined) ?
*A* > 100 µM (inactive)

*Q* Value lookup for GI50; key = O=C1CC2(CCNCC2)C(=O)N1N1CCOCC1
*A* > 100 µM (inactive)

*Q* Can you share its GI50? I mean this molecule: O=C1Cc2ccccc2N1c1c(Cl)cccc1Cl
*A* 43.4 µM (inactive)

*Q* Consider the molecule O=c1c(-c2ccc(O)cc2)coc2cc(OC3OC(CO)C(O)C(O)C3O)cc(O)c12 (centres undefined) and give its measured GI50.
*A* > 10 µM (inactive)

*Q* Requested read-out: GI50. Entry: CC(C)(C)OC(=O)N1CCC(NC(=O)NC2CCN(C(=O)OC(C)(C)C)CC2)CC1
*A* > 100 µM (inactive)

*Q* What does the record list as GI50 for CC(C)(C)[Si](C)(C)OC1(CCc2ccccc2OS(=O)(=O)C(F)(F)F)CCCC=C1COCc1ccccc1 (centres undefined) ?
*A* 4.81 µM (inactive)

====

Each entry below carries its reported GI50.
System: MDA-MB-231
TEST_DETAILS: NCI tumour cell line growth inhibition, 48 h
Activity calls are given as the source filed them. No stated cut-off is given here; in the data, active = GI50 up to about 1.1 µM and inactive = higher.

Here's what some known entries look like.
MOLECULE: O=C(COc1ccc(OCC(=O)NNC2=NC(c3cc(F)c(Cl)cc3Cl)CS2)c(Cl)c1)NNC1=NC(c2cc(F)c(Cl)cc2Cl)CS1 (stereo not drawn)
EXPERIMENTAL_SYSTEM: MDA-MB-231
GI50: 20000 nM (inactive)
//
MOLECULE: C#CC1(O)C(COP(=O)(O)OC(COCCCCCCCCCCCCCCCCCC)COP(=O)(O)OCC2OC(n3cc(C)c(=O)[nH]c3=O)CC2N=[N+]=[N-])OC(n2ccc(N)nc2=O)C1O (stereo not drawn)
EXPERIMENTAL_SYSTEM: MDA-MB-231
GI50: 2390 nM (inactive)

Now consider the entry below.
*Q* Please provide the recorded GI50 for COc1cc(C2c3cc4c(cc3[C@@H](Nc3ccc(F)cc3)C3COC[C@H]23)OCO4)cc(OC)c1O (stereo partly drawn) , tested on MDA-MB-231.
*A* 2740 nM (inactive)

====

Test system: BT-549
TEST_DETAILS: NCI tumour cell line growth inhibition, 48 h
Calls of active or inactive are those of the source. No stated cut-off is given here; in the data, active = GI50 up to about 1.1 µM and inactive = higher.
Quick list: GI50 per entry.

STRUCTURE_NOTATION: O=S(=O)(O)c1ccc2c(/N=N/c3ccccc3Cl)c(O)ccc2c1
GI50: > 100 µM (inactive)

STRUCTURE_NOTATION: CC(=O)OC(C)(C)[C@H]1O[C@]23O[C@]1(C)C[C@@H](C)[C@@H]2[C@@]1(C)CC[C@@]24C[C@@]25CC[C@H](O[C@@H]2OC[C@@H](O)[C@H](O)[C@H]2O)C(C)(C)[C@@H]5CC[C@H]4[C@]1(C)[C@H]3O
GI50: 16.3 µM (inactive)

STRUCTURE_NOTATION: CC(C)(C)c1ccc(O)c(CN(Cc2c(O)ccc3ccccc23)C2CCCCC2)c1
GI50: 19.6 µM (inactive)

Lab note: next compound to report on.
*Q* Given the compound CN(CCCN=C=S)CCCN1c2ccccc2CCc2ccccc21 , what is its reported GI50?
*A* 2.83 µM (inactive)
